- Assay Procedure: Biodistribution of radiolabeled miniprotein conjugates by SPECT/CT, HT-1376-OE xenograft
- Conditions: female, mouse, in vivo, iv, Kidneys, 22 h (% ID/g) Average
Bridges are numbered along the chain shown (N, C = ends). [ ]: non-standard residue; d: D form. The star is where a group is joined. DOTA = O=C(O)CN1CCN(CC(=O)O)CCN(CC(=O)*)CCN(CC(=O)O)CC1; Lys(Me3) = C[N+](C)(C)CCCC[C@H](N)C(=O)O; Cit = NC(=O)NCCC[C@H](N)C(=O)O; PEG4 = NCCOCCOCCOCCOCCC(=O)O
Measured Endpoint: tissue uptake at 22 h (%ID/g)
API: value field is a number in %ID/g; no unit string.

| Substance | Unit Text | tissue uptake at 22 h |
| --- | --- | --- |
| {DOTA-PEG4}-CEYDEEFFTALARLRGGDICQYIQAKFQYLPGQCIEEILDNLGCS-OH (disulfide 1-34, 20-44) [Compound C244] | %ID/g | 17.8 |

Sample {DOTA-PEG4}-CDYDEQFFTALA[Cit]LRGGDICEYIQA[Lys(Me3)]FQYLPGLCIEEILDNLGCS-OH (disulfide 1-34, 20-44 (inferred)) [Compound C260] — what was its tissue uptake at 22 h?
6.92

====

- Assay Procedure: In vivo biodistribution of 111In-labeled miniproteins by SPECT/CT, HT-1376 xenograft
- Parameters: species or system mouse
- Conditions: female, athymic nude, mouse, in vivo
Bridges are numbered along the chain shown (N, C = ends). [ ]: non-standard residue; d: D form. The star is where a group is joined. DOTA = O=C(O)CN1CCN(CC(=O)O)CCN(CC(=O)*)CCN(CC(=O)O)CC1; Lys(Me3) = C[N+](C)(C)CCCC[C@H](N)C(=O)O; Cit = NC(=O)NCCC[C@H](N)C(=O)O; PEG4 = NCCOCCOCCOCCOCCC(=O)O
Reported values of tissue uptake at 4 h for individual entries

| Substance | tissue uptake at 4 h |
| --- | --- |
| {DOTA-PEG4}-CEYDEQFFTALSSLRGGDICYYIQEQFANVPGICIEEILDNLGCS-OH (disulfide 1-34, 20-44) [Compound C137] | 78.8 %ID/g |

Sample {DOTA-PEG4}-CDYDEQFFTALA[Cit]LRGGDICEYIQA[Lys(Me3)]FQYLPGLCIEEILDNLGCS-OH (disulfide 1-34, 20-44 (inferred)) [Compound C260] — what was its tissue uptake at 4 h?
12.8 %ID/g

Sample {DOTA-PEG4}-CEYDEQFFTALKRLRGADICSYIQASFQYLPGLCIEEILDNLGCS-OH (disulfide 1-34, 20-44) [Compound C250] — what was its tissue uptake at 4 h?
67.5 %ID/g

Sample {DOTA-PEG4}-CEYDEEFFTALKRLRGGDICYYIQAKFQYLPKLCIEEILDNLGCS-OH (disulfide 1-34, 20-44 (inferred)) [Compound C117] — what was its tissue uptake at 4 h?
150 %ID/g

Sample {DOTA-PEG4}-CEYDEEFFTALKRLRGGDICYYIQKAFQYLPGLCIEEILDNLGCS-OH (disulfide 1-34, 20-44) [Compound C121] — what was its tissue uptake at 4 h?
100 %ID/g

Sample {DOTA-PEG4}-CEYDEEFFTALARLRGGDICQYIQAKFQYLPGQCIEEILDNLGCS-OH (disulfide 1-34, 20-44) [Compound C244] — what was its tissue uptake at 4 h?
27.7 %ID/g

====

- Assay Procedure: In vivo biodistribution of 111In-labeled miniproteins by SPECT/CT, HT-1376 xenograft
- Design: species or system mouse
- Conditions: female, athymic nude, mouse, in vivo; 111In-labeled miniprotein, SPECT/CT, kidneys, 24 h post-dosing, n=3 mice; read-out: Biodistribution, Kidneys, 24 h (% ID/g) Average
Bridges are numbered along the chain shown (N, C = ends). The star is where a group is joined. DOTA = O=C(O)CN1CCN(CC(=O)O)CCN(CC(=O)*)CCN(CC(=O)O)CC1; PEG4 = NCCOCCOCCOCCOCCC(=O)O
Measured Endpoint: tissue uptake at 24 h (%ID/g)
API: value field is a number in %ID/g; no unit string.

Sample {DOTA-PEG4}-CEYDEQFFTALKALRGGDICYYIQASFNYLPDLCIEEILDNLGCS-OH (disulfide 1-34, 20-44 (inferred)) [Compound C113] — what was its tissue uptake at 24 h?
42.7

====

Reported values of half-life for individual entries
- Assay Procedure: in vivo
- Conditions: Sprague Dawley, rat, iv
Bridges are numbered along the chain shown (N, C = ends). [ ]: non-standard residue; d: D form. The star is where a group is joined. DOTA = O=C(O)CN1CCN(CC(=O)O)CCN(CC(=O)*)CCN(CC(=O)O)CC1; Lys(Me3) = C[N+](C)(C)CCCC[C@H](N)C(=O)O; Cit = NC(=O)NCCC[C@H](N)C(=O)O; PEG4 = NCCOCCOCCOCCOCCC(=O)O
API: value field is a number in min; no unit string.

Below, each entry is followed by its recorded half-life result.
| Substance | Unit Text | Recorded Measurement |
| --- | --- | --- |
| {DOTA-PEG4}-CEYDEQFFTALARLRGGDICEYIQAKFQYLPGLCIEEILDNLGCS-OH (disulfide 1-34, 20-44) [Compound C219] | min | 25.4 |
| {DOTA-PEG4}-CEYDEEFFTALKRLRGGDICYYIQAKFQYLPKLCIEEILDNLGCS-OH (disulfide 1-34, 20-44) [Compound C118] | min | 19.7 |
| {DOTA-PEG4}-CEYDEQFFTALKALRGGDICYYIQASFNYLPDLCIEEILDNLGCS-OH (disulfide 1-34, 20-44 (inferred)) [Compound C114] | min | 25.5 |
| {DOTA-PEG4}-CDYDEQFFTALA[Cit]LRGGDICEYIQA[Lys(Me3)]FQYLPGLCIEEILDNLGCS-OH (disulfide 1-34, 20-44 (inferred)) [Compound C261] | min | 28.7 |

Then there is this substance:
Sample {DOTA-PEG4}-CEYDEEFFTALARLRGGDICQYIQAKFQYLPGQCIEEILDNLGCS-OH (disulfide 1-34, 20-44) [Compound C242] — what was its half-life?
29.7

====

- Assay Procedure: Biodistribution of radiolabeled miniprotein conjugates by SPECT/CT, HT-1376-OE xenograft
- Conditions: female, mouse, in vivo, iv, Kidneys, 4 h (% ID/g) Average
Bridges are numbered along the chain shown (N, C = ends). [ ]: non-standard residue; d: D form. The star is where a group is joined. DOTA = O=C(O)CN1CCN(CC(=O)O)CCN(CC(=O)*)CCN(CC(=O)O)CC1; Lys(Me3) = C[N+](C)(C)CCCC[C@H](N)C(=O)O; Cit = NC(=O)NCCC[C@H](N)C(=O)O; PEG4 = NCCOCCOCCOCCOCCC(=O)O
Measured Endpoint: tissue uptake at 4 h (%ID/g)
API: value field is a number in %ID/g; no unit string.

| Substance | Measured Endpoint | Recorded Measurement |
| --- | --- | --- |
| {DOTA-PEG4}-CDYDEQFFTALA[Cit]LRGGDICEYIQA[Lys(Me3)]FQYLPGLCIEEILDNLGCS-OH (disulfide 1-34, 20-44 (inferred)) [Compound C260] | tissue uptake at 4 h | 11.6 |

Sample {DOTA-PEG4}-CEYDEEFFTALARLRGGDICQYIQAKFQYLPGQCIEEILDNLGCS-OH (disulfide 1-34, 20-44) [Compound C244] — what was its tissue uptake at 4 h?
29.5

====

- Target Entity: Nectin-4 (Homo sapiens)
- Sequence (Q96NY8 32-510): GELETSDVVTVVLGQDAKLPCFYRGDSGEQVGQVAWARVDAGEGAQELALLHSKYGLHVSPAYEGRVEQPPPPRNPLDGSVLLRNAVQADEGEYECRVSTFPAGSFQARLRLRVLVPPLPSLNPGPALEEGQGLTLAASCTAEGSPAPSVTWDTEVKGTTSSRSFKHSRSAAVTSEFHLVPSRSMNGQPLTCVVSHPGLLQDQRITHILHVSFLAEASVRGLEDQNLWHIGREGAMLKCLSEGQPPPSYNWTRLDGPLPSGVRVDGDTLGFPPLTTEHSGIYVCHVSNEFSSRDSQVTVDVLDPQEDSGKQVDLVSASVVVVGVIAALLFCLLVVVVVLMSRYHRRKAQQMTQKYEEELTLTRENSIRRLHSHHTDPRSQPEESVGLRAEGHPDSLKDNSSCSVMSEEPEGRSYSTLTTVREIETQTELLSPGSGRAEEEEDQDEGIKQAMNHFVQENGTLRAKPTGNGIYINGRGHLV
- Assay Procedure: DELFIA whole cell binding assay, equilibrium binding affinity (KD), Table 2B
- Conditions: Table 2B, binding to Nectin-4; read-out: Binding Affinity (KD)
- Description: A whole cell binding assay was used to estimate the equilibrium binding affinity (KD) or binding inhibition constant (Ki) of miniprotein ligands to cells expressing a target of interest. Cells were dispensed into a 384-well plate and incubated at 37° C., in 5% CO2 overnight. […] Plates were read on an Envision plate reader and a curve-fitting model was applied to estimate KD and Ki values using GraphPad Prism software. Mean DELFIA K; values for exemplary miniproteins are recorded in TABLE 9A.
Bridges are numbered along the chain shown (N, C = ends).
Reported values of pKd for individual entries
Would you please state pKd, meaning minus log10 of the concentration in mol/L, as a bare number?

Sample Ac-CEYDEEFFLGLKRLRGGDICYYIKKKFKKVPDLCIEEILDKLGC-OH (disulfide 1-34, 20-44) [Compound C34] — what was its pKd?
8.50

Sample Ac-CEYDEEFFAGLKRLRRGDICYYIKKKFDKVPDLCIEEILDKLGC-OH (disulfide 1-34, 20-44) [Compound C14] — what was its pKd?
7.85

Sample Ac-CEYDEEFFLGLKRLRGGDICYYIKKKFKKVPELCIEEILKKLGC-OH (disulfide 1-34, 20-44) [Compound C67] — what was its pKd?
8.58

Sample Ac-CEYDEEFFTALARLRGGDICYYIQAKFQYLPGLCIEEILDNLGCS-OH (disulfide 1-34, 20-44) [Compound C124] — what was its pKd?
8.96

Sample Ac-CEYDEEFFKGLKRLRGGDICYYIKKKFKKVPKLCIEEILDKLGC-OH (disulfide 1-34, 20-44) [Compound C80] — what was its pKd?
8.57

Sample Ac-CEYDEKFFTGLKRLRGGDICYYIKKKFKKVPKLCIEEILDKLGC-OH (disulfide 1-34, 20-44) [Compound C70] — what was its pKd?
8.66

Sample Ac-CEYDEEFFLGLKRLRGGDICYYIKKKFKKVPDLCIEEILEKLGC-OH (disulfide 1-34, 20-44) [Compound C60] — what was its pKd?
8.50
